System: Hepatotoxicity
Protocol Details: FDA HLAED, alkaline phosphatase increase
Experimental Context: human
Observed Property: Alkaline Phosphatase Increase - Activity Score

Examples from the recorded data:
CN(C/C=C/c1ccccc1)Cc1cccc2ccccc12 :: Inactive
O=c1[nH]cnc2c1ncn2[C@H]1CC[C@@H](CO)O1 :: Active
Fc1ccccc1C1=NCC(=S)N(CC(F)(F)F)c2ccc(Cl)cc21 :: Inactive
Cc1cccc(Nc2ccncc2S(=O)(=O)NC(=O)NC(C)C)c1 [TORSEMIDE] :: Inactive
CN1C(C(=O)Nc2ccccn2)=C(O)c2ccccc2S1(=O)=O :: Inactive
CC=CC1=C(C(=O)O)N2C(=O)[C@@H](NC(=O)[C@H](N)c3ccc(O)cc3)[C@H]2SC1 :: Inactive
CN(C)C(=N)N=C(N)N :: Inactive
C[C@]12CC[C@H]3[C@@H](CCC4=CC(=O)CC[C@@]43C)[C@@H]1CC[C@@H]2OC(=O)Cc1ccccc1 [TESTOSTERONE PHENYLACETATE] :: Inactive
CN(C)CCCN1c2ccccc2CCc2ccc(Cl)cc21 :: Inactive
COc1cc([C@@H]2c3cc4c(cc3[C@@H](O[C@@H]3O[C@@H]5CO[C@@H](C)O[C@H]5[C@H](O)[C@H]3O)[C@H]3COC(=O)[C@H]23)OCO4)cc(OC)c1O [ETOPOSIDE] :: Inactive

Ask: Form: Entry = COc1cc([C@@H]2c3cc4c(cc3[C@H](O)[C@H]3COC(=O)[C@H]23)OCO4)cc(OC)c1OC | System = Hepatotoxicity | Alkaline Phosphatase Increase - Activity Score = ____
Result: Inactive

Ask: Next compound: O=C(O)c1cc(/N=N/c2ccc(O)c(C(=O)O)c2)ccc1O
Result: Inactive

Ask: Input CC(=O)N(CC(O)CO)c1c(I)c(C(=O)NCC(O)CO)c(I)c(C(=O)NCC(O)CO)c1I (stereo unspecified) [IOHEXOL]
Result: Inactive

Ask: Also need CC1COc2c(N3CCN(C)CC3)c(F)cc3c(=O)c(C(=O)O)cn1c23 (stereo unspecified) , thanks.
Result: Inactive

Ask: Would you mind doing C[C@H](CCC(=O)O)[C@H]1CC[C@H]2[C@@H]3[C@@H](O)C[C@@H]4C[C@H](O)CC[C@]4(C)[C@H]3CC[C@]12C as well?
Result: Active

Ask: Quick one: C=C1/C(=C\C=C2/CCC[C@]3(C)[C@@H]([C@H](C)/C=C/[C@@H](O)C4CC4)CC[C@@H]23)C[C@@H](O)C[C@@H]1O
Result: Inactive

---

Test system: Hepatotoxicity
Protocol Details: FDA HLAED, serum glutamic pyruvic transaminase (SGPT) increase
Experimental Context: human
Observed Property: SGPT Increase - Index Value
The response must contain the number and no unit.

CCC1=C(C)CN(C(=O)NCCc2ccc(S(=O)(=O)NC(=O)N[C@H]3CC[C@H](C)CC3)cc2)C1=O [GLIMEPIRIDE] :: 1.2

Ask: // SGPT Increase - Index Value lookup, key: Nc1nc2c(ncn2CCC(CO)CO)c(=O)[nH]1
Result: 0

Ask: Can you handle COCCOC(=O)C1=C(C)NC(C)=C(C(=O)OC(C)C)C1c1cccc([N+](=O)[O-])c1 (stereo not drawn) next?
Result: 29.3

Ask: Likewise for CCCCC(C)(O)C/C=C/[C@H]1[C@H](O)CC(=O)[C@@H]1CCCCCCC(=O)OC (stereo partly drawn) ?
Result: 0.2

Ask: Query O=C1CC2(CCCC2)CC(=O)N1CCCCN1CCN(c2ncccn2)CC1 next
Result: 3.1

Ask: Try the compound Sc1ncnc2nc[nH]c12 [MERCAPTOPURINE ANHYDROUS]
Result: 5.2

Ask: Item: COc1ccc2[nH]c([S+]([O-])Cc3ncc(C)c(OC)c3C)nc2c1 (stereo not drawn)
Result: 0.9

Ask: Lookup CO[C@@]1(NC(=O)CSCC#N)C(=O)N2C(C(=O)O)=C(CSc3nnnn3C)CS[C@@H]21
Result: 0
